The values you see were collected from the supplement of paper PMC9170038.

Would you mind telling me the reported apparent KD of K4 kissing-loop reporter of each entry?
- Test system: K4 kissing-loop RNA reporter;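 note: bound reporter read as fluorescence of individual clusters on recovered sequencing chips by microscopy, with normalized cluster intensities fitted with a binding model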
- Experiment: apparent KD of K4 kissing-loop reporter; higher = weaker reporter binding
- Details: Eterna round: R107; input ligand: tryptophan 2.4 mM
Numbers only, in nM.

Sequence record	apparent KD of K4 kissing-loop reporter / nM
AGCGUCUGAAGAGGAUAUGACCAGUGAUGUUGGUUACUACCUCAAAUUAGUGUCUCGUCAAAAUCGUCAGAAGGCUUCGACGAGC [#09 K4 FMN B Exclusion]	91.2
AAAGUUGAUGAGUUGGGUAUGUGUUCCGAAGGAGCGAGAAUUAUCUCAGGUAGGUCGCGGAAGAUGAGUGAUGUUCAUCUAUAAA [KL-XArg-A8 #analogue]	127

Here is the next item to consider.
Request: Tell me its apparent KD of K4 kissing-loop reporter given AAUAAAAGAUGUUUAGGAAAGAAAAUGGAAGGAGCGUGCGAAAGCACAGGUAGGUCGCCAGUGAUGUUGGAACCUGAGCAUCAAA [#SwitchBubble 15 #K4Late] as the entry.
Response: 436
